Test system: SKOV3
TEST NAME: Primary qHTS to identify gynecologic anti-cancer compounds using libraries of approved drugs and bioactive compounds (AID 1345084); further: nearly all actives have a fitted effect of over 55% in size; further: potency means the concentration at half of the fitted maximal effect
CONDITION CONTEXT: Gynecologic cancer cell panel viability, ATPlite luminescence, 48 h; series mostly up to 57.5 µM
Records with an inconclusive call do not appear. Activity calls are given as the source filed them. The call rests on the fitted dose curve; in most records, active means well fitted cell-killing curve with a large enough effect; inconclusive means small, poorly fitted or top-dose-only effect, or effect the other way; inactive means flat fitted curve, though single readings scatter.
MEASURED QUANTITY: Potency

In the examples that follow, each entry is paired with its recorded Potency.
[[record]]
compound = "CNCCCC12CCC(c3ccccc31)c1ccccc12"
measured_quantity = "Potency"
assay_value = "11.2 µM (active)"

[[record]]
compound = "CS(=O)(=O)CCNCc1ccc(-c2ccc3ncnc(Nc4ccc(OCc5cccc(F)c5)c(Cl)c4)c3c2)o1"
measured_quantity = "Potency"
assay_value = "inactive"

[[record]]
compound = "CC[C@@]1(O)C(=O)OCc2c1cc1n(c2=O)Cc2cc3c(CN(C)C)c(O)ccc3nc2-1"
measured_quantity = "Potency"
assay_value = "14.1 µM (active)"

[[record]]
compound = "Clc1ccc2nsnc2c1NC1=NCCN1"
measured_quantity = "Potency"
assay_value = "inactive"

[[record]]
compound = "Cc1ccc(-c2cc(C(F)(F)F)nn2-c2ccc(S(N)(=O)=O)cc2)cc1"
measured_quantity = "Potency"
assay_value = "inactive"


Q. Request the reported Potency associated with Cn1c(=O)c2[nH]cnc2n(C)c1=O
A. inactive

Q. Next up: CCC1(C)CC(=O)NC1=O (stereo unspecified)
A. inactive

Q. Next up: CN(Cc1cnc2nc(N)nc(N)c2n1)c1ccc(C(=O)N[C@@H](CCC(=O)O)C(=O)O)cc1
A. inactive

Q. Next up: NCCc1cnc[nH]1
A. inactive

Q. Next up: Cc1cnc(C(=O)NCCc2ccc(S(=O)(=O)NC(=O)NC3CCCCC3)cc2)cn1
A. inactive

Q. Next up: COc1nc(C)nc(Cl)c1NC1=NCCN1
A. inactive

----------
TGT: Glutaminase kidney isoform, mitochondrial (Homo sapiens) (UniProt O94925)
Sequence (O94925 whole entry, looked up, canonical isoform): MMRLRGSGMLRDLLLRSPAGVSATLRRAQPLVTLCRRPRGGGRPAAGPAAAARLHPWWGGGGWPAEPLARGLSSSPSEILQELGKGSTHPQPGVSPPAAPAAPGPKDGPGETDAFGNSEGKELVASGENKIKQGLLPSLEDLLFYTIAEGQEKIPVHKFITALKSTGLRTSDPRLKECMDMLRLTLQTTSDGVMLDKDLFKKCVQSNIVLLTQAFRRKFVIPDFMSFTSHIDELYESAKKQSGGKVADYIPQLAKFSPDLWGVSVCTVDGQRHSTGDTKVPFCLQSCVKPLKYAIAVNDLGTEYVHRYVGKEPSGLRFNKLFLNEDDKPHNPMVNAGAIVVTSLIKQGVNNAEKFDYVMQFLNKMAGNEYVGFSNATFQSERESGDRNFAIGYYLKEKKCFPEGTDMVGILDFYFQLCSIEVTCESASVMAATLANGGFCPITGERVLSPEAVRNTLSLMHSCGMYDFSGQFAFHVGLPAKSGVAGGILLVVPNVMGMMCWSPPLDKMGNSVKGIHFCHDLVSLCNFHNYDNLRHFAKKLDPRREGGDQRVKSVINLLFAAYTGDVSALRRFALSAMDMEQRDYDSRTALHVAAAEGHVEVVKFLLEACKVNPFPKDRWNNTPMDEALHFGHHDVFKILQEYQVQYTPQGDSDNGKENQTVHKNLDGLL
TEST NAME: qHTS for Inhibitors of Glutaminase (GLS): LOPAC Validation (AID 624146); further: nearly all actives have a fitted effect of over 60% in size
CONDITION CONTEXT: glutaminase enzyme activity inhibition; series mostly up to 46.1 µM
Inconclusive results are not listed. Calls of active or inactive are those of the source. Calls come from the whole dose curve; as a rule, active = well fitted inhibition curve with a large enough effect; inconclusive = small, poorly fitted or top-dose-only effect; inactive = no such curve, though single readings can be large or run the other way.
Your response should consist of one outcome taken from class 1 = active, class 0 = inactive

# example entries with known answers
[[record]]
molecule = "CCN1CCCC1CNC(=O)c1cc(S(=O)(=O)CC)c(N)cc1OC (stereo unspecified)"
tgt = "Glutaminase kidney isoform, mitochondrial (Homo sapiens) (UniProt O94925)"
group = "class 0"

[[record]]
molecule = "NS(=O)(=O)c1cc2c(cc1Cl)NCNS2(=O)=O"
tgt = "Glutaminase kidney isoform, mitochondrial (Homo sapiens) (UniProt O94925)"
group = "class 0"

[[record]]
molecule = "NC(=O)NO"
tgt = "Glutaminase kidney isoform, mitochondrial (Homo sapiens) (UniProt O94925)"
group = "class 1"

[[record]]
molecule = "O=C1N(c2ccccc2)c2ccccc2C1(Cc1ccncc1)Cc1ccncc1"
tgt = "Glutaminase kidney isoform, mitochondrial (Homo sapiens) (UniProt O94925)"
group = "class 0"

[[record]]
molecule = "NC12CC3CC(CC(C3)C1)C2"
tgt = "Glutaminase kidney isoform, mitochondrial (Homo sapiens) (UniProt O94925)"
group = "class 0"


Q. Test call, this molecule: Nc1c2c(nc3ccccc13)CCCC2
A. class 0

Q. Next up: COc1cc2c(c(OC)c1OC)-c1ccc(OC)c(=O)cc1[C@@H](NC(C)=O)CC2
A. class 0

Q. Next up: CCOC(=O)c1ncn2c1CN(C)C(=O)c1cc(F)ccc1-2
A. class 0

Q. Next up: COc1cc2nc(N(C)CCCNC(=O)C3CCCO3)nc(N)c2cc1OC (stereo unspecified)
A. class 0

Q. Next up: N[C@@H](Cc1c[nH]c2ccc(O)cc12)C(=O)O
A. class 1

Q. Next up: CCCCc1oc2ccccc2c1C(=O)c1cc(I)c(OCCN(CC)CC)c(I)c1
A. class 0
